Kindly supply the reported nuclei count values for the records listed here.
Assay: reduction of polyQ htt aggregates in cells – imaging, exon1htt(103Q)mCFP cells, high-content imaging, primary screen (AID 483);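 also: compound exposure lasted 3 days before fixation; percent of the per-plate median nuclei count of sample wells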
Settings: exon1htt(103Q)mCFP cell line, aggregate imaging, at 2 µM; measured here: cell count, toxicity
Provide only the numeric value, understood in %.

## Input Report nuclei count, nothing else, for this molecule: COc1ccccc1OCC(=O)NCC1CCCCC1
## Output 108

## Input Return nuclei count for the following molecule: O=C(Nc1ccccc1C(=O)N1CCOCC1)C1CCC(=O)N1C1CCCC1 (stereo unspecified)
## Output 79.1

## Input Look up and report measured nuclei count for this entry: CN1CCN(C2=C(Cl)C(=O)N(c3cccc(Cl)c3)C2=O)CC1
## Output 91.3

## Input Fill in reported nuclei count for this entry: CC(C)(C)n1nnnc1C(c1ccccc1)N1CCc2ccccc2C1 (stereo unspecified)
## Output 115

## Input For the molecule Cc1ccc(C)c(NS(=O)(=O)c2ccc(NC(=O)c3ccco3)cc2)c1 , report nuclei count.
## Output 111

## Input For the molecule CC(C)C(C(=O)Nc1ccc2c(c1)OCCO2)N1C(=O)c2ccccc2C1=O (stereo unspecified) , report nuclei count.
## Output 104

## Input Please indicate nuclei count recorded for CCOc1ccc(N(CC(=O)OC)S(=O)(=O)c2ccc(OC)c(OC)c2)cc1
## Output 104

## Input Report measured nuclei count; entry is CSc1nc2ccccc2c(=O)n1N
## Output 90.5

## Input Specify reported nuclei count for the molecule shown: Cc1nc(-c2cccc(N)c2)cs1
## Output 77.8

## Input // Input: O=C(O)C1C2C=CC(C3CC23)C1C(=O)NCCc1ccccc1 (stereo unspecified) . Output its nuclei count only.
## Output 54

## Input Using known records, supply nuclei count for O=C(Nc1ccccc1)c1cnc2n(c1=O)CCS2
## Output 106

## Input Give nuclei count for the following molecule: O=c1c2c(-c3ccccc3)csc2nc2n1CCC2
## Output 87

## Input Answer with the recorded nuclei count of CC(=O)c1cccc(NS(=O)(=O)c2ccc3c(c2)oc(=O)n3C)c1 only.
## Output 119

## Input Check the records and state nuclei count for O=C(CSc1ccc2nnc(-c3ccccc3)n2n1)N1CCN(c2ccccc2)CC1
## Output 110

## Input Hello, please tell me recorded nuclei count for this one: CCOc1cc(S(=O)(=O)N2CCC(Cc3ccccc3)CC2)c(OCC)cc1-n1cnnn1
## Output 103

## Input Give reported nuclei count value for CC(C)c1nnc(NC(=O)c2cnccn2)s1
## Output 103

## Input Tell us which nuclei count value is on record for Cc1cc(C)n(CC(=O)O)n1
## Output 102

## Input For the molecule CCOC(=O)C(NC(=O)OC(C)C)(Nc1nccs1)C(F)(F)F (stereo unspecified) , report nuclei count.
## Output 98.7

## Input # return recorded nuclei count for entry Cc1nc2cc(N3CCCCC3)c(NC(=O)c3cccnc3)cc2c(=O)n1Cc1ccccc1
## Output 93.3

## Input Using known records, supply nuclei count for COc1ccc(OC)c(S(=O)(=O)N2CCN(c3c(C)cccc3C)CC2)c1
## Output 111

## Input Provide measured nuclei count value, entry: CCC(C)(C(=O)NC1CCCC1)N(Cc1cccs1)C(C)=O (stereo unspecified)
## Output 115

## Input Provide only the value of recorded nuclei count for C/C(N)=C(/C#N)C(=O)CSc1nnc(Nc2c(C)cccc2C)s1
## Output 70.3

## Input Recall and state the measured nuclei count for CC(=O)NCc1nc2ccccc2n1C(C)C .
## Output 110

## Input For the molecule CC(C)C1C2=C(CC(C)(C)CC2=O)ON1c1ccccc1 (stereo unspecified) , give its reported nuclei count.
## Output 86.8

## Input Hello, please tell me recorded nuclei count for this one: CC(C)(C)C(=O)NC1CCN(C(=O)N2CCCC2)CC1
## Output 107

## Input For the molecule Cc1c(Cl)cccc1N1C(=O)c2ccccc2C1=O , give its measured nuclei count value.
## Output 90.5

## Input Retrieve nuclei count measured for Cc1cc2cc(CCNC(=O)CC(C)C)c(=O)[nH]c2cc1C and print it.
## Output 83.5

## Input Give the value of nuclei count reported for the following: COc1ccc(C2=NO[C@@H]3C(=O)N(c4ccc5c(c4)OCCO5)C(=O)[C@H]23)cc1OC
## Output 111

## Input State its nuclei count: Cc1c(NC(=O)c2ccc(CN3CCc4ccccc4C3)cc2)c(=O)n(-c2ccccc2)n1C
## Output 110

## Input For the molecule O=C(Nc1nnc(COc2ccc(F)cc2)s1)c1cccs1 , give its reported nuclei count.
## Output 126

## Input Using the record for O=C(Cn1cnc2c(cnn2-c2ccccc2)c1=O)NCCc1ccccc1 , state its measured nuclei count.
## Output 112

## Input Return reported nuclei count. Input molecule: O=C(Nc1cnn(Cc2ccc(Cl)cc2Cl)c1)c1noc2c1CCCC2
## Output 57.6

## Input Look up and state reported nuclei count for N#CC(C(=O)c1ccco1)c1ccccn1 (stereo unspecified)
## Output 108

## Input // Input: N#Cc1nc(COc2ccccc2)oc1NCCCn1ccnc1 . Output its nuclei count only.
## Output 95.5

## Input Complete the entry with nuclei count for CCOC(=O)Cn1nnc(-c2ccc(SC)cc2)n1
## Output 102

## Input # return recorded nuclei count for entry O=C(CSc1nnc2ccccn12)c1ccccc1
## Output 105

## Input Name the recorded nuclei count of the item CCOC(=O)c1c(C)[nH]c(C)c1C(=O)COC(=O)CNC(=O)c1ccc(OCC)cc1 in your answer.
## Output 63.7

## Input Name the recorded nuclei count of the molecule listed here: Nc1ncnc(Nc2ccccc2C(F)(F)F)n1
## Output 100

## Input Quickly give me recorded nuclei count for O=C(COC(=O)c1cccc(S(=O)(=O)N2CCc3ccccc32)c1)NC1CCS(=O)(=O)C1 (stereo unspecified)
## Output 125

## Input Give the reported value of nuclei count for this record: CCCCOc1ccc(CSc2n[nH]c(C)n2)cc1
## Output 86.8

## Input Return reported nuclei count. Input molecule: NC(=O)CN1C(=O)C(O)(CC(=O)c2ccccc2O)c2ccccc21 (stereo unspecified)
## Output 122

## Input For the molecule COC(=O)C1=C(CSCc2ccco2)NC(=O)NC1c1cc(C)ccc1C (stereo unspecified) , report nuclei count.
## Output 115

## Input Indicate the recorded nuclei count value for this molecule: Cc1ccc(N2CC(C)Cn3c2nc2c3c(=O)n(CC(=O)OCc3ccccc3)c(=O)n2C)cc1C (stereo unspecified)
## Output 77.7

## Input Note nuclei count for the molecule shown: N#CC1=C(N)OC(c2ccccc2)=C(C#N)C1c1ccc2c(c1)OCO2 (stereo unspecified)
## Output 112

## Input Kindly indicate its recorded nuclei count. Item: CCOC(=O)C1CCCN(c2c(N3CCN(c4ccccn4)CC3)c(=O)c2=O)C1 (stereo unspecified)
## Output 98.8

## Input Given O=C(c1ccco1)N1CCN(C2=NS(=O)(=O)c3ccccc32)CC1 , respond with its nuclei count.
## Output 105
